Origin of measurements: patent US8288375B2

Tested on: Fusarium graminearum
assay-remarks: whole plant or invertebrate
Format: in vivo
conditions-used: Fusarium graminearum, in Triticum aestivum, 192 h, read-out: Test C disease control rating
# pest or weed control at 40 ppm annotations
Express it in %; write the number only.

// worked examples, pest or weed control at 40 ppm included
molecule	measurement-target	reported-measurement
CN1CCCc2c(-c3ccnc(NC4CC4)n3)c(-c3ccc(F)cc3)nn21 [Compound 135]	Fusarium graminearum	84
CC(CO)Nc1nccc(-c2c(-c3ccc(F)cc3)nn3c2CCCN3)n1 (centres unmarked) [Compound 132]	Fusarium graminearum	0
CC(=O)N1CCCc2c(-c3ccnc(NC4CC4)n3)c(-c3ccc(F)cc3)nn21 [Compound 134]	Fusarium graminearum	84
COC(=O)N1CCn2nc(-c3ccc(F)cc3)c(-c3ccnc(NC(C)C)n3)c2C1 [Compound 138]	Fusarium graminearum	86

Consider the record given below.
Asked: Assign pest or weed control at 40 ppm to the following record: c1ccc(-c2nn3c(c2-c2ccnc(NC4CC4)n2)CCCC3)cc1 [Compound 27]
Given back: 99

====

# Test J disease control rating annotations
Tested on: Phytophthora infestans
assay-remarks: whole plant or invertebrate
Format: in vivo
conditions-used: 200 ppm test suspension
Express it in %; write the number only.

// worked examples, Test J disease control rating included
compound	units-label	Test J disease control rating
Fc1ccc(-c2nn3c(c2-c2ccnc(NC4CCCC4)n2)CCCC3)cc1	%	93
CCC(C)Nc1nccc(-c2c(-c3ccc(F)cc3)nn3c2CCC3)n1 (centres unmarked)	%	67
CC(C)Nc1nccc(-c2c(-c3ccc(F)cc3)nn3c2CCC3)n1	%	0

Asked: Assign Test J disease control rating to the following record: CCC(C)Nc1nccc(-c2c(-c3cccc(F)c3)nn3c2CCC3)n1 (centres unmarked)
Given back: 57

Asked: Assign Test J disease control rating to the following record: CCN1CCCC1CNc1nccc(-c2c(-c3ccc(F)cc3)nn3c2CCCC3)n1 (centres unmarked)
Given back: 0

====

# Test L disease control rating annotations
Tested on: Pythium aphanidermatum
assay-remarks: Test L: bluegrass pythium blight, test suspension sprayed on bluegrass seedlings, disease rating;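 further: 200 ppm unless marked * meaning 40 ppm or ** meaning 10 ppm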
Assay type: in vivo
conditions-used: 40 ppm test suspension (*)
Marks after values point to notes of the source that are not given here.

Asked: Assign Test L disease control rating to the following record: Fc1ccc(-c2nn3c(c2-c2ccnc(NC4CCOCC4)n2)COCC3)cc1
Given back: 100* %

====

Tested on: Colletotrichum orbiculare
assay-remarks: Test F: cucumber Colletotrichum anthracnose, test suspension sprayed on cucumber seedlings, disease rating
Format: in vivo
conditions-used: 200 ppm test suspension
# Test F disease control rating annotations
Express it in %; write the number only.

// worked examples, Test F disease control rating included
compound	units-label	Test F disease control rating
CC(C)Nc1nccc(-c2c(-c3ccc(F)cc3)nn3c2CCC3)n1	%	16
COc1ccc(-c2nn3c(c2-c2ccnc(NC4CC4)n2)CCC3)cc1	%	0
CC(C)Nc1nccc(-c2c(-c3ccc(F)cc3)nn3c2CCCN3)n1	%	0

Consider the record given below.
Asked: Assign Test F disease control rating to the following record: Fc1ccc(-c2nn3c(c2-c2ccnc(NC4CC4)n2)CCC3)c(F)c1
Given back: 24

====

Tested on: Puccinia recondite f sp. tritici
assay-remarks: Test B: wheat leaf rust, test suspension sprayed on wheat seedlings, disease rating;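 further: 200 ppm unless marked * meaning 40 ppm or ** meaning 10 ppm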
Type: in vivo
conditions-used: 40 ppm test suspension (*)
Marks after values point to notes of the source that are not given here.
readout-label: Test B disease control rating

// worked examples, Test B disease control rating included
compound	reported-measurement
COCC(C)Nc1nccc(-c2c(-c3ccccc3)nn3c2CCCC3)n1 (stereo not drawn) [compound 53]	98* %
Cc1cc(-c2nn3c(c2-c2ccnc(NC(C)CO)n2)CCCC3)ccc1F (stereo not drawn) [compound 32]	74* %
Cc1cc(-c2nn3c(c2-c2ccnc(NC(C)C)n2)CCCC3)ccc1F [compound 33]	77* %
Fc1ccc(-c2nn3c(c2-c2ccnc(NC4CCOCC4)n2)COCC3)cc1 [compound 129]	98* %
C[C@@H](CO)Nc1nccc(-c2c(-c3ccccc3)nn3c2CCCC3)n1 [Compound 54]	98* %
C[C@H](CO)Nc1nccc(-c2c(-c3ccc(F)cc3)nn3c2CCCC3)n1 [compound 57]	86* %

Asked: Assign Test B disease control rating to the following record: CC(C)C(CO)Nc1nccc(-c2c(-c3ccc(F)cc3)nn3c2CCCC3)n1 (stereo not drawn) [compound 74]
Given back: 91* %

Asked: Assign Test B disease control rating to the following record: CC(CO)Nc1nccc(-c2c(-c3ccc(F)cc3)nn3c2CCCC3)n1.Cl (stereo not drawn) [compound 72]
Given back: 94* %

Asked: Assign Test B disease control rating to the following record: CC(=O)N1CCn2nc(-c3ccc(F)cc3)c(-c3ccnc(NC(C)C)n3)c2C1 [Compound 130]
Given back: 92* %

====

# melting point annotations

// worked examples, melting point included
smiles-str	melting point
Fc1ccc(-c2nn3c(c2-c2ccnc(Cl)n2)CCCN3)cc1	206 to 207 °C
Fc1ccc(-c2nn3c(c2-c2ccnc(NCC4CC4)n2)CCCC3)cc1	124 to 125 °C
CC(C)Nc1nccc(-c2c(-c3ccc(F)cc3)nn3c2CCCC3)n1	178 to 180 °C
c1cc(-c2c(-c3ccsc3)nn3c2COCC3)nc(NC2CC2)n1	182 to 184 °C

Asked: Assign melting point to the following record: CC(C)Nc1nccc(-c2c(-c3ccc(F)cc3)nn3c2COCC3)n1
Given back: 144 to 146 °C

====

# pest or weed control at 200 ppm annotations
System: Rhizoctonia oryzae
assay-remarks: Test I: turf brown patch, test suspension sprayed on creeping bent grass seedlings, disease rating
Assay type: in vivo
conditions-used: Waitea circinata, in Agrostis stolonifera, 120 h; 200 ppm test suspension
Express it in %; write the number only.

// worked examples, pest or weed control at 200 ppm included
compound	readout-label	reported-measurement
Fc1ccc(-c2nn3c(c2-c2ccnc(NC4CC4)n2)CCCN3)cc1	pest or weed control at 200 ppm	57
CC(CO)Nc1nccc(-c2c(-c3ccc(F)cc3)nn3c2CCCN3)n1 (centres unmarked)	pest or weed control at 200 ppm	0
Fc1ccc(-c2nn3c(c2-c2ccnc(NC4CC4)n2)CCCC3)cc1	pest or weed control at 200 ppm	64
CC(C)Nc1nccc(-c2c(-c3ccc(F)cc3)nn3c2CCCC3)n1	pest or weed control at 200 ppm	62

Asked: Assign pest or weed control at 200 ppm to the following record: CC(C)Nc1nccc(-c2c(-c3ccc(F)cc3)nn3c2COCC3)n1
Given back: 80

Asked: Assign pest or weed control at 200 ppm to the following record: CC(=O)N1CCCc2c(-c3ccnc(NC4CC4)n3)c(-c3ccc(F)cc3)nn21
Given back: 24

Asked: Assign pest or weed control at 200 ppm to the following record: COC(=O)N1CCn2nc(-c3ccc(F)cc3)c(-c3ccnc(NC(C)C)n3)c2C1
Given back: 0

Asked: Assign pest or weed control at 200 ppm to the following record: CN1CCCc2c(-c3ccnc(NC4CC4)n3)c(-c3ccc(F)cc3)nn21
Given back: 0

====

# pest or weed control at 40 ppm annotations
System: Puccinia recondite f sp. tritici
assay-remarks: Test B: wheat leaf rust, test suspension sprayed on wheat seedlings, disease rating;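 further: 200 ppm unless marked * meaning 40 ppm or ** meaning 10 ppm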
Format: in vivo
conditions-used: Puccinia, 192 h; 40 ppm test suspension (*)
Express it in %; write the number only.

molecule	reported-measurement
c1ccc(-c2nn3c(c2-c2ccnc(NC4CC4)n2)CCCC3)cc1 [Compound 27]	95
CC(=O)N1CCCc2c(-c3ccnc(NC4CC4)n3)c(-c3ccc(F)cc3)nn21 [Compound 134]	85
COC(=O)N1CCn2nc(-c3ccc(F)cc3)c(-c3ccnc(NC(C)C)n3)c2C1 [Compound 138]	98
CN1CCCc2c(-c3ccnc(NC4CC4)n3)c(-c3ccc(F)cc3)nn21 [Compound 135]	61

Consider the record given below.
Asked: Assign pest or weed control at 40 ppm to the following record: CC(CO)Nc1nccc(-c2c(-c3ccc(F)cc3)nn3c2CCCN3)n1 (centres unmarked) [Compound 132]
Given back: 88

====

Test system: Puccinia recondite f sp. tritici
assay-remarks: Test B: wheat leaf rust, test suspension sprayed on wheat seedlings, disease rating;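 further: 200 ppm unless marked * meaning 40 ppm or ** meaning 10 ppm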
Type: in vivo
conditions-used: 200 ppm test suspension
readout-label: Test B disease control rating (%)
Express it in %; write the number only.

// worked examples, Test B disease control rating included
molecule	Test B disease control rating, %
COCC(C)Nc1nccc(-c2c(-c3cccc(F)c3)nn3c2CCC3)n1 (centres unmarked)	89
CCC(CO)Nc1nccc(-c2c(-c3ccc(F)cc3)nn3c2CCCC3)n1 (centres unmarked)	95
CC(CO)Nc1nccc(-c2c(-c3ccc(F)cc3)nn3c2CCCC3)n1 (centres unmarked)	100

Asked: Assign Test B disease control rating to the following record: CCC(C)Nc1nccc(-c2c(-c3ccc(F)cc3)nn3c2CCC3)n1 (centres unmarked)
Given back: 99

Asked: Assign Test B disease control rating to the following record: CNc1nccc(-c2c(-c3ccc(F)cc3)nn3c2CCCC3)n1
Given back: 99
